Hello, the source for this data is PubChem BioAssay, in case you need it.

# Tested on: XIP peptide (Xip251-270) binding
# protocol.summary: small-molecule binders of XIP peptide, primary screen, biochemical, small-molecule microarray, fluorescence 635/667 nm, 0.1 µg/mL protein (AID 1182)
# experimental.setup: fluorescent protein binding, 635 nm, higher = more signal, called active from +8 up or from −8 down
Kindly supply the reported composite z-score values for the records listed here.
Answer field: number only, no words.

In: Recorded composite z-score of C=C(CCCC)C(=O)CC[C@@H](OC(C)=O)c1cccc(OCCO)c1 , please.
Out: -0.0399

In: Recorded composite z-score of CCCCCN1CC=CC23O[C@@H]4C=CCOC(=O)[C@@H]4[C@H]2C(=O)N(CCCCCCO)[C@@H]3C1=O (stereo not given in full) , please.
Out: 0.282

In: Recorded composite z-score of CC1(C)OCC(C(O)C2=CCCCC2=O)CO1 (stereo not given) , please.
Out: 0.563

In: Recorded composite z-score of O=C1C[C@]2(c3ccc([N+](=O)[O-])cc3)C(=O)N(CCN3CCOCC3)c3cc(CO)ccc3[C@H]2N1CC12CC3CC(CC(C3)C1)C2 , please.
Out: 0.288

In: Recorded composite z-score of CC(=O)OC[C@H]1O[C@H](CCON=C(C)CCC(=O)OC[C@H]2O[C@H](C#Cc3ccccc3)C=C[C@@H]2Oc2ccc(C)cc2)C=C[C@@H]1OC(C)=O , please.
Out: -0.365

In: Recorded composite z-score of C=C(COC)/C(=C/C[C@H](OC(=O)c1ccncc1)c1ccc(CO)o1)c1cc(C(=O)OC)ccc1OC , please.
Out: -0.222

In: Recorded composite z-score of COc1ccc(COC(=O)NN=C2C[C@@H](O)[C@@H](O)[C@@H]3[C@@H]4C(=O)N(Cc5ccc6c(c5)OCO6)C(=O)[C@@H]4CC[C@@H]23)cc1 , please.
Out: 0.361

In: Recorded composite z-score of COc1ccc(O[C@H]2C=C[C@@H](c3ccccc3)O[C@@H]2COC(=O)CCC(C)=NOC[C@@H](C)[C@H](OCc2ccccc2)C(C)C)cc1 , please.
Out: 0.294

In: Recorded composite z-score of COc1ccc([Si](C)(C)[C@H]2[C@H](CCO)O[C@@]3(C(=O)N(Cc4cccc(NC(=O)[C@H](C)O)c4)c4ccccc43)[C@@H]2C)cc1 , please.
Out: -0.201

In: Recorded composite z-score of O=C1[C@H]2[C@H]3[C@H](O)[C@H](O)CC(=NOCc4ccccc4)[C@H]3CC[C@H]2C(=O)N1c1ccc(F)cc1F , please.
Out: -0.0939

In: Recorded composite z-score of CCN1C(=O)[C@H]2[C@H]3[C@H](O)[C@H](O)CC(=NOC[C@@H](C)[C@H](OCc4ccccc4)C(C)C)[C@@H]3CC[C@H]2C1=O , please.
Out: 0.185

In: Recorded composite z-score of CCOC(=O)CCN1C(=O)[C@H]2[C@H]3[C@H](O)[C@H](O)CC(=NOC[C@@H](O)COCc4ccco4)[C@H]3CC[C@H]2C1=O , please.
Out: 0.378

In: Recorded composite z-score of C#C[C@@H]1Oc2ccccc2S(=O)(=O)N2CCC[C@H]12 , please.
Out: -0.037

In: Recorded composite z-score of COCCCNC(=O)[C@@]1(C)c2ccccc2C(=O)N(Cc2ccc(OC(F)(F)F)cc2)[C@H]1c1ccc(CO)cc1 , please.
Out: 0.111

In: Recorded composite z-score of O=C1NC(=O)C2C1C=CC(C(O)Cc1ccccc1)N2Nc1ccccn1 (stereo not given) , please.
Out: -0.0757
